Measured values drawn from patent US20070020327A1 for this set.

Quick reference: binding affinity ratio (IC50 of the standard peptide / IC50 of the test peptide) of the listed items.
# Target desc: HLA-A*0206 (human)
# Method: competition with 125I-labelled standard peptide for purified HLA, gel filtration
Property: binding affinity ratio (IC50 of the standard peptide / IC50 of the test peptide)

{"columns": ["Binder", "Observed value"],
 "data": [
  ["YASGWGSI (modifications not checked) [Kallikrein 153 peptide YASGWGSI]", 0.0003],
  ["YTKVVHYRKWI (modifications not checked) [Kallikrein 243 peptide …]", -0.0001],
  ["YASGWGSI (modifications not checked) [PSA 149 peptide YASGWGSI]", 0.0003],
  ["YTKVVHYRKWI (modifications not checked) [PSA 239 peptide …]", -0.0001]
]}
